Assayed System: human recombinant Monoacylglycerol Lipase (Homo sapiens)
Experiment: MAGL enzymatic assay (IC50; 7-HCA substrate added at T=0 min or T=30 min)
Type: biochemical
Assay Setup: substrate 7-HCA added immediately (T=0 min); geometric mean of 2-5 determinations unless otherwise indicated; read-out: MAGL (T = 0 min) IC50
pIC50: −log10 of the molar value.
Measured Property: pIC50

Examples with their reported pIC50 follow.
1. O=C(O[C@H](CO)C(F)(F)F)N1CCC2(CC1)CC(c1c(F)cccc1F)CO2 (single isomer, unassigned) [Example 32] : 8.30
2. O=C(O[C@H](CO)C(F)(F)F)N1CCC2(CC1)CC(n1ncc3ccccc31)CO2 (single isomer, unassigned) [Example 62] : 8.00
3. CN([C@H]1COC2(CCN(C(=O)O[C@H](CO)C(F)(F)F)CC2)C1)S(=O)(=O)CC1CC(F)(F)C1 [Example 57] : 6.95
4. O=C(O[C@H](CO)C(F)(F)F)N1CCC2(CC1)CC(c1cccc(C(F)(F)F)n1)CO2 (single isomer, unassigned) [Example 15] : 7.17
5. CN(C(=O)C1CC1)C1CC2(CCN(C(=O)O[C@H](CO)C(F)(F)F)CC2)C1 [Example 55] : 7.52

P. O=C(O[C@H](CO)C(F)(F)F)N1CCC2(CC1)CC(c1ccccc1F)CO2 (single isomer, unassigned) [Example 26]
Q. CN(C(=O)Cc1ccccc1)C1CC2(CCN(C(=O)O[C@H](CO)C(F)(F)F)CC2)C1 [Example 44]
R. O=C(O[C@H](CO)C(F)(F)F)N1CCC2(CC1)CC(c1cccc(C(F)F)n1)C2 [Example 77]
S. O=C(O[C@H](CO)C(F)(F)F)N1CCC2(CCC(n3cc(C(F)F)cn3)CO2)CC1 (single isomer, unassigned) [Example 75]
T. O=C(O[C@H](CO)C(F)(F)F)N1CCC2(CC1)CC(c1cccc(C(F)(F)F)n1)C2 [Example 76]
Rank descending by pIC50. Use the labels to give the requested order.
T, R, P, Q, S

P. CN(C(=O)CC1CC1)C1CC2(CCN(C(=O)O[C@H](CO)C(F)(F)F)CC2)C1 [Example 43]
Q. O=C(O[C@H](CO)C(F)(F)F)N1CCC2(CC1)CC(Oc1cc(C(F)F)ccn1)C2 [Example 89]
Looking at recorded values for pIC50, does P or Q come in lower? Label of pick, please.
P
(P: 7.54, Q: 8.10)

P. O=C(O[C@H](CO)C(F)(F)F)N1CCC2(CC1)CC(c1cc(C(F)F)ccn1)CO2 (single isomer, unassigned) [Example 35]
Q. CN(C(=O)C1CC(F)(F)C1)[C@H]1COC2(CCN(C(=O)O[C@H](CO)C(F)(F)F)CC2)C1 [Example 58]
Lab notebook, comparison: P versus Q , higher pIC50 goes to which? Label of pick, please.
P

---

Assayed System: human recombinant Monoacylglycerol Lipase (Homo sapiens)
Experiment: MAGL enzymatic assay (IC50; 7-HCA substrate added at T=0 min or T=30 min)
Assay type: biochemical
Assay Setup: substrate 7-HCA added immediately (T=0 min); geometric mean of 2-5 determinations unless otherwise indicated; read-out: MAGL (T = 0 min) IC50
Measured Property: IC50 (nM)

Examples with their reported IC50 follow.
1. N#Cc1ccc(F)c(C2COC3(CCN(C(=O)O[C@H](CO)C(F)(F)F)CC3)C2)c1 (single isomer, unassigned) [Example 30] : 54
2. Cc1cn(C2COC3(CCN(C(=O)O[C@H](CO)C(F)(F)F)CC3)C2)nc1C (single isomer, unassigned) : 21
3. Cc1nn(C2CC3(CCN(C(=O)O[C@H](CO)C(F)(F)F)CC3)C2)c(C)c1C : 44
4. O=C(O[C@H](CO)C(F)(F)F)N1CCC2(CC1)C[C@@H](n1cc(F)cn1)CO2 : 211
5. O=C(O[C@H](CO)C(F)(F)F)N1CCC2(CC1)CC(Oc1cccc(C(F)F)c1)C2 : 2

A. O=C(O[C@H](CO)C(F)(F)F)N1CCC2(CC1)CC(n1cc(F)cn1)C2
B. O=C(O[C@H](CO)C(F)(F)F)N1CCC2(CC1)CC(n1cccn1)C2
C. O=C(O[C@H](CO)C(F)(F)F)N1CCC2(CC1)CC(c1cc(C(F)(F)F)ccn1)C2
D. O=C(O[C@H](CO)C(F)(F)F)N1CCC2(CC1)CC(c1ccnc(C(F)(F)F)c1)C2
Rank descending by IC50. Use the labels to give the requested order.
B, A, D, C

a. O=C(O[C@H](CO)C(F)(F)F)N1CCC2(CC1)CC(c1ccc(F)cn1)CO2 (single isomer, unassigned) [Example 16]
b. O=C(O[C@H](CO)C(F)(F)F)N1CCC2(CC1)CC(c1ccc(C(F)F)nc1)C2
c. O=C(O[C@H](CO)C(F)(F)F)N1CCC2(CC1)CC(Oc1cccc(C(F)F)n1)C2
d. CN(C(=O)C(C)(C)C)C1CC2(CCN(C(=O)O[C@H](CO)C(F)(F)F)CC2)C1
Order by IC50, ascending. Use the labels to give the requested order.
d, c, b, a

---

Assayed System: human recombinant Monoacylglycerol Lipase (Homo sapiens, UniProt Q99685)
Sequence (Q99685 whole entry): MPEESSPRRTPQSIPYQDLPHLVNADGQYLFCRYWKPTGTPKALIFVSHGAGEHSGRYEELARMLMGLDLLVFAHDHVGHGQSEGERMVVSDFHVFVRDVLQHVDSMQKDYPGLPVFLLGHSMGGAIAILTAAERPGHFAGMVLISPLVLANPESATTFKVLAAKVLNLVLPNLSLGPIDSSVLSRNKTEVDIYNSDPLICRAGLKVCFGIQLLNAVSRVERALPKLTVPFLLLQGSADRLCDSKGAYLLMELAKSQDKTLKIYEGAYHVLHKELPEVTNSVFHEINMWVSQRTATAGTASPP
Experiment: MAGL enzymatic assay (IC50; 7-HCA substrate added at T=0 min or T=30 min)
Assay type: biochemical
Assay Setup: substrate 7-HCA added immediately (T=0 min); geometric mean of 2-5 determinations unless otherwise indicated; read-out: MAGL (T = 0 min) IC50
Measured Property: IC50 (nM)

1) N#Cc1ccc(C2COC3(CCN(C(=O)O[C@H](CO)C(F)(F)F)CC3)C2)nc1 (single isomer, unassigned) : 200
2) O=C(O[C@H](CO)C(F)(F)F)N1CCC2(CC1)CC(c1ccccn1)C2 : 45

a. N#Cc1cc(C2COC3(CCN(C(=O)O[C@H](CO)C(F)(F)F)CC3)C2)ccc1F (single isomer, unassigned)
b. O=C(O[C@H](CO)C(F)(F)F)N1CCC2(CC1)CC(c1ccc(C(F)F)cn1)CO2 (single isomer, unassigned)
c. N#Cc1ccc(F)c(C2COC3(CCN(C(=O)O[C@H](CO)C(F)(F)F)CC3)C2)c1 (single isomer, unassigned) [Example 29]
d. O=C(O[C@H](CO)C(F)(F)F)N1CCC2(CC1)CC(c1ccc(C(F)(F)F)nc1)C2
e. O=C(O[C@H](CO)C(F)(F)F)N1CCC2(CC1)CC(c1ccc(C(F)(F)F)cn1)C2
Order by IC50, ascending. Use the labels to give the requested order.
e, d, a, b, c
(e: 8 nM, d: 14 nM, a: 27 nM, b: 43 nM, c: 184 nM)

---

Assayed System: human recombinant Monoacylglycerol Lipase (Homo sapiens, UniProt Q99685)
Experiment: MAGL enzymatic assay (IC50; 7-HCA substrate added at T=0 min or T=30 min)
Type: biochemical
Assay Setup: MAGL (T=30 min) IC50, 30 minute incubation of compound with MAGL enzyme before addition of 7-HCA substrate
pIC50: −log10 of the molar value.
Measured Property: pIC50

Examples with their reported pIC50 follow.
1) N#Cc1ccc([C@@H]2COC3(CCN(C(=O)O[C@H](CO)C(F)(F)F)CC3)C2)cc1F [diastereomer of Example 27] : 7.77
2) O=C(O[C@H](CO)C(F)(F)F)N1CCC2(CC1)CC(c1c(F)cccc1F)CO2 (single isomer, unassigned) [diastereomer of Example 32] : 9.00
3) N#Cc1cccc(C2COC3(CCN(C(=O)O[C@H](CO)C(F)(F)F)CC3)C2)c1F (single isomer, unassigned) [diastereomer of Example 71] : 8.10

a. N#Cc1ccc(C2COC3(CCN(C(=O)O[C@H](CO)C(F)(F)F)CC3)C2)c(F)c1 (single isomer, unassigned) [diastereomer of Example 72]
b. O=C(O[C@H](CO)C(F)(F)F)N1CCC2(CC1)CC(n1cc(C(F)F)cn1)CO2 (single isomer, unassigned) [diastereomer of Example 20]
Looking at recorded values for pIC50, does a or b come in lower? Label of pick, please.
b

---

Assayed System: human recombinant Monoacylglycerol Lipase (Homo sapiens)
Experiment: MAGL enzymatic assay (IC50; 7-HCA substrate added at T=0 min or T=30 min)
Format: biochemical
Assay Setup: read-out: MAGL (T=30 min) IC50; 30 minute incubation of compound with MAGL enzyme before addition of 7-HCA substrate
Measured Property: IC50 (nM)

1. O=C(OC(CO)C(F)(F)F)N1CCC2(CC1)CC(c1cc(C(F)F)ccn1)CO2 (single isomer, unassigned) [diastereomer of Example 35] : 19
2. O=C(OC(CO)C(F)(F)F)N1CCC2(CC1)CC(c1ccc(F)cc1F)CO2 (single isomer, unassigned) [diastereomer of Example 33] : 2
3. CC(C)(C)c1cnn(C2COC3(CCN(C(=O)OC(CO)C(F)(F)F)CC3)C2)c1 (single isomer, unassigned) [diastereomer of Example 21] : 7
4. Cc1cn(C2COC3(CCN(C(=O)OC(CO)C(F)(F)F)CC3)C2)nc1C (single isomer, unassigned) [diastereomer of Example 54] : 20
5. N#Cc1ccc(C2COC3(CCN(C(=O)O[C@H](CO)C(F)(F)F)CC3)C2)cc1 (single isomer, unassigned) [diastereomer of Example 31] : 23
6. N#Cc1ccc(C2COC3(CCN(C(=O)OC(CO)C(F)(F)F)CC3)C2)nc1 (single isomer, unassigned) [diastereomer of Example 38] : 336
7. O=C(OC(CO)C(F)(F)F)N1CCC2(CC1)CC(c1ccc(F)cc1)CO2 (single isomer, unassigned) [diastereomer of Example 34] : 1

1. O=C(OC(CO)C(F)(F)F)N1CCC2(CCC(n3cc(C(F)(F)F)cn3)CO2)CC1 (single isomer, unassigned) [diastereomer of Example 69]
2. O=C(OC(CO)C(F)(F)F)N1CCC2(CC1)CC(n1ccc(C(F)(F)F)n1)CO2 (single isomer, unassigned) [diastereomer of Example 53]
3. O=C(OC(CO)C(F)(F)F)N1CCC2(CC1)CC(n1cc(Cl)cn1)CO2 (single isomer, unassigned) [diastereomer of Example 22]
Order by IC50, ascending. Use the labels to give the requested order.
1, 2, 3
(1: 3 nM, 2: 9 nM, 3: 23 nM)
